system_tested: neuromedin U receptor 2 (NMUR2) (Homo sapiens, UniProt Q9GZQ4)
Construct: human NMUR2 stably expressed in HEK293 cells
Sequence (Q9GZQ4 whole entry): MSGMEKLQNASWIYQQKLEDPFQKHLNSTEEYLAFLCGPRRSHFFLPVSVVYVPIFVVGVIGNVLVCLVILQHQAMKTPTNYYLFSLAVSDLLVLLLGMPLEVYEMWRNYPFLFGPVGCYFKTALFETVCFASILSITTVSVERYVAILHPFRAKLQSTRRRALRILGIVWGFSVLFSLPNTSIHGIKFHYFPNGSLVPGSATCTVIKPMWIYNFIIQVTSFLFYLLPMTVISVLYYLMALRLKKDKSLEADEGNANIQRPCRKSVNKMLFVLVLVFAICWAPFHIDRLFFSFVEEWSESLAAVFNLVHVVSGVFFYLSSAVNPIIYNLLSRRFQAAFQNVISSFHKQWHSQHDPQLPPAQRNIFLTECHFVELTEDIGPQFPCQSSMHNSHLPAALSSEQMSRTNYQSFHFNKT
protocol_summary: GloSensor cAMP inhibition (Gi mode) in hNMUR2 HEK293 cells; no effect in cells lacking NMUR2; FLIPR calcium EC50 […]
Format: cell-based
condition_label: read-out: Gi/o EC50
quantity_measured: EC50 (nM)
Give just the number in nM; leave the unit off.

Reported EC50 of "N=C(N)NCCCOC(c1ccccc1)(c1ccccc1)c1ccccc1" : 0.71
